experimental.target: ETS1 (UniProt P14921)
Sequence: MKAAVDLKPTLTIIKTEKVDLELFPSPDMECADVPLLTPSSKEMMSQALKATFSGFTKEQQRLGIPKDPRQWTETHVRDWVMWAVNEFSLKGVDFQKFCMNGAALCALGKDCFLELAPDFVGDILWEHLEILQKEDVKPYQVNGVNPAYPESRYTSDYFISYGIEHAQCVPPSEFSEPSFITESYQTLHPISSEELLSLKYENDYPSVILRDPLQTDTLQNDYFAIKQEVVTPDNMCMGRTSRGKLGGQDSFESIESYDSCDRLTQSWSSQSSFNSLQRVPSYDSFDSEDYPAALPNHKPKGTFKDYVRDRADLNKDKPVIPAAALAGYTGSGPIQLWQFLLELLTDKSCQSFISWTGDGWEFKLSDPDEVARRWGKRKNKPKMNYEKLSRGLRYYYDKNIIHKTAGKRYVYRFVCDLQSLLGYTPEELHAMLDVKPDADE
test.summary: ETS1 binding intensity (PBM fluorescence), ETS1 alone (arbitrary fluorescence units); higher = stronger binding
condition.info: ETS1 concentration 1 nM; RUNX1 concentration 0 nM
Decision: ETS1 binding intensity compared against 1000; not below it gives true (1), below it gives false (0).

Recorded results for 6 sequences are shown here.
query.sequence | discrete.label
GCACCGTCTACCCGGAAGTTGTGGGCTGGGAGGGAT | true (1)
GACCGAGAGGAAGCAGCAAGGATCCTGCGGTTCCAG | false (0)
TGGCTTTGCAGAAGGAAGCTGTGGTTTCTGGTCTTC | false (0)
AACAGAGACCCGGAAGTTGTGGGACGAAGCCAGGAC | true (1)
TGGGTACTTCCTGTGACAAATCGAGTTGACCACATG | true (1)
ACACCGCTCAGGAAGACAAAGCCACACCTCACACCA | false (0)

Request: Would you say `TGTATAACATCCTCATGTTCTGTGGGTGAGTTGAGC` shows ETS1 binding intensity at minimum 1000?
Response: false (0)

Request: Would you say `CATGCGTCACCTTCCTGTGTGGTCAGCAGTGCTTGC` shows ETS1 binding intensity at minimum 1000?
Response: false (0)

Request: Would you say `CGGGGACCACTGTCAGGATGTGGTCACTGGAGTCAC` shows ETS1 binding intensity at minimum 1000?
Response: false (0)

Request: Would you say `TCTTGCCCGGGTCGGAAATGGTGGTCACGAGCGCTT` shows ETS1 binding intensity at minimum 1000?
Response: true (1)

Request: Would you say `AGAGGCAGCTTCCGGAGACTGCTCTGTGGCCAGTTT` shows ETS1 binding intensity at minimum 1000?
Response: false (0)

* * *

experimental.target: RUNX1 (UniProt Q01196)
Sequence (Q01196 whole entry): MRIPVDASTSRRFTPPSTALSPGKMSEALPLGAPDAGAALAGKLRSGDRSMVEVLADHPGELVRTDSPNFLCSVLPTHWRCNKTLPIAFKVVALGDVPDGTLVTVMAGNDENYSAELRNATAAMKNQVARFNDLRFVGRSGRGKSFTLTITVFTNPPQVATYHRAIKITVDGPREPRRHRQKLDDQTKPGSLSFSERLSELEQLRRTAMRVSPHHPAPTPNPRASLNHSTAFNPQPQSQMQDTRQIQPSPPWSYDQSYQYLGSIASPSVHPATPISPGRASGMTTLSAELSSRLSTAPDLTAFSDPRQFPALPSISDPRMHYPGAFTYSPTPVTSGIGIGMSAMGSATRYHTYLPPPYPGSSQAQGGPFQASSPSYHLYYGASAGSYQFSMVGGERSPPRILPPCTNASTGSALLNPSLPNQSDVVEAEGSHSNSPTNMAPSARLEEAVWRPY
test.summary: RUNX1 binding intensity (PBM fluorescence), RUNX1 alone (arbitrary fluorescence units); higher = stronger binding
condition.info: RUNX1 concentration 2 nM; ETS1 concentration 0 nM
Decision: RUNX1 binding intensity compared against 800; not below it gives YES, below it gives NO.

Recorded results for 8 sequences are shown here.
query.sequence | discrete.label
ATTCCTAGAGAGGAAATGCGGGCTCAGGGTGTCGGC | NO
AGGTCTCCGGAAGTGGGTCTGCGGCGCGCGGGATGC | NO
AAGAACCTAGAGGATGTGTGGTTTTATGTGCAGGGT | YES
TAGCCGTACGGAAATGTTTGTGGTTCTCTGCATCTA | YES
GCGGGGCGCAGGAAGCGGGGCGAAACCACTGTTGGC | NO
TCATGCTGCTTCCTGCCCAACCCGCAGTTCCGATAA | YES
GATCTGTGCTCAGGATGTGGTGAGAGAATAAGGAAG | NO
CATCCAGGACGGAAACAGCATCCCCACCGCGGGAGC | YES

Request: Would you say `ATCACTTGTTTCCGCCAGCAAACCACAGGTCCCCAG` shows RUNX1 binding intensity at minimum 800?
Response: YES

Request: Would you say `ATTAAAAAAATTTCCTTTGTGGTCACTTAGTTATTA` shows RUNX1 binding intensity at minimum 800?
Response: YES

Request: Would you say `GGACTTCCTGAACTGGGAGGTCACCGACCACAACCT` shows RUNX1 binding intensity at minimum 800?
Response: YES

Just for reference, the supplement of paper PMC10681739 is where these values come from.
